Each item that follows carries a reported kon.
- Measured target: T1, GPC3 (UniProt P51654 25-559, limits assumed)
- T1 construct: also called antigen GPC3; Glypican 3
- T1 sequence (P51654 25-559 limits assumed): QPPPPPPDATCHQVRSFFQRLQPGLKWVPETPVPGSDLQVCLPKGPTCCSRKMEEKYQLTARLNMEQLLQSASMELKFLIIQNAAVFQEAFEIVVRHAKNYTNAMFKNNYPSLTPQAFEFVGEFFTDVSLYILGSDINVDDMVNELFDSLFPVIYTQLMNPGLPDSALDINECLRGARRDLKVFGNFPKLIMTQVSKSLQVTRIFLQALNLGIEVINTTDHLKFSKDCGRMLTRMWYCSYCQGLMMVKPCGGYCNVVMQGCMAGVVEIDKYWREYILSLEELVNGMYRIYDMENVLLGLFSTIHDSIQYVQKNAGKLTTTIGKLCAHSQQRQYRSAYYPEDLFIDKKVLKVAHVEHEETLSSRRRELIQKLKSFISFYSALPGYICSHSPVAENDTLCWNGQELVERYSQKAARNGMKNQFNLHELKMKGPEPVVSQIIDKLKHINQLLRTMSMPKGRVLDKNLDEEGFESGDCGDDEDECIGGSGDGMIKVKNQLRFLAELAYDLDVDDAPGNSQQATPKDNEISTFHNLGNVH
- Method description: SPR (Biacore T200); scFv-Fc captured by anti-human Fc pAb, GPC3 10-320 nM in flow
Endpoint: kon

1. VL1-VH2 humanized scFv (scFv, not shown: a dimerising Fc or GST, Crude scFv with Fc tag from HEK293 supernatant) scFv: DIVMTQTPLSLSVTPGQPASISCRSSQSLVHSNGNTYLHWYLQKPGQSPQLLIYKVSNRFSGVPDRFSGSGSGTDFTLKISRVEAEDVGVYYCSQNTHVPPTFGQGTKVEIKGGGGSGGGGSGGGGSQVQLVQSGAEVKKPGASVKVSCKASGYTFTDYEMHWVRQAPGQGLEWMGALDPKTGDTAYSQKFKGRVTLTADTSTSTVYMELSSLRSEDTAVYYCTRFYSYTYWGQGTLVTVSS    170000 M⁻¹ s⁻¹
2. VL1-VH2.M1 humanized scFv (scFv, not shown: a dimerising Fc or GST, Crude scFv with Fc tag from HEK293 supernatant) scFv: DIVMTQTPLSLSVTPGQPASISCRSSQSLVHSNGNTYLHWYLQKPGQSPQLLIYKVSNRFSGVPDRFSGSGSGTDFTLKISRVEAEDVGVYYCSQNTHVPPTFGQGTKVEIKGGGGSGGGGSGGGGSQVQLVQSGAEVKKPGASVKVSCKASGYTFTSYEMHWVRQAPGQGLEWMGALDPKTGDTAYSQKFKGRVTLTADTSTSTVYMELSSLRSEDTAVYYCTRFYSYTYWGQGTLVTVSS    190000 M⁻¹ s⁻¹
3. VL1.M2-VH2.M5 humanized scFv (scFv, not shown: a dimerising Fc or GST, Crude scFv with Fc tag from HEK293 supernatant) scFv: DIVMTQTPLSLSVTPGQPASISCRSSQSLVHSNGNTYLHWYLQKPGQSPQLLIYKVSSRFSGVPDRFSGSGSGTDFTLKISRVEAEDVGVYYCSQNTHVPPTFGQGTKVEIKGGGGSGGGGSGGGGSQVQLVQSGAEVKKPGASVKVSCKASGYTFTDYEMHWVRQAPGQGLEWMGALDPKTGDTAYSQKFQGRVTLTADTSTSTVYMELSSLRSEDTAVYYCTRFYSYTYWGQGTLVTVSS    170000 M⁻¹ s⁻¹
4. VL1.M2-VH2 humanized scFv (scFv, not shown: a dimerising Fc or GST, Crude scFv with Fc tag from HEK293 supernatant) scFv: DIVMTQTPLSLSVTPGQPASISCRSSQSLVHSNGNTYLHWYLQKPGQSPQLLIYKVSSRFSGVPDRFSGSGSGTDFTLKISRVEAEDVGVYYCSQNTHVPPTFGQGTKVEIKGGGGSGGGGSGGGGSQVQLVQSGAEVKKPGASVKVSCKASGYTFTDYEMHWVRQAPGQGLEWMGALDPKTGDTAYSQKFKGRVTLTADTSTSTVYMELSSLRSEDTAVYYCTRFYSYTYWGQGTLVTVSS    160000 M⁻¹ s⁻¹

Data credit: patent US20250297029A1
